Data origin, for the record: patent US20260356804A1

Recorded measurements of pIC50, one per entry
- target_of_assay: human Nav1.8/b3 (Homo sapiens)
- Construct: expressed in transfected cells; host or cells: CHO
- Sequence (Q9Y5Y9 whole entry): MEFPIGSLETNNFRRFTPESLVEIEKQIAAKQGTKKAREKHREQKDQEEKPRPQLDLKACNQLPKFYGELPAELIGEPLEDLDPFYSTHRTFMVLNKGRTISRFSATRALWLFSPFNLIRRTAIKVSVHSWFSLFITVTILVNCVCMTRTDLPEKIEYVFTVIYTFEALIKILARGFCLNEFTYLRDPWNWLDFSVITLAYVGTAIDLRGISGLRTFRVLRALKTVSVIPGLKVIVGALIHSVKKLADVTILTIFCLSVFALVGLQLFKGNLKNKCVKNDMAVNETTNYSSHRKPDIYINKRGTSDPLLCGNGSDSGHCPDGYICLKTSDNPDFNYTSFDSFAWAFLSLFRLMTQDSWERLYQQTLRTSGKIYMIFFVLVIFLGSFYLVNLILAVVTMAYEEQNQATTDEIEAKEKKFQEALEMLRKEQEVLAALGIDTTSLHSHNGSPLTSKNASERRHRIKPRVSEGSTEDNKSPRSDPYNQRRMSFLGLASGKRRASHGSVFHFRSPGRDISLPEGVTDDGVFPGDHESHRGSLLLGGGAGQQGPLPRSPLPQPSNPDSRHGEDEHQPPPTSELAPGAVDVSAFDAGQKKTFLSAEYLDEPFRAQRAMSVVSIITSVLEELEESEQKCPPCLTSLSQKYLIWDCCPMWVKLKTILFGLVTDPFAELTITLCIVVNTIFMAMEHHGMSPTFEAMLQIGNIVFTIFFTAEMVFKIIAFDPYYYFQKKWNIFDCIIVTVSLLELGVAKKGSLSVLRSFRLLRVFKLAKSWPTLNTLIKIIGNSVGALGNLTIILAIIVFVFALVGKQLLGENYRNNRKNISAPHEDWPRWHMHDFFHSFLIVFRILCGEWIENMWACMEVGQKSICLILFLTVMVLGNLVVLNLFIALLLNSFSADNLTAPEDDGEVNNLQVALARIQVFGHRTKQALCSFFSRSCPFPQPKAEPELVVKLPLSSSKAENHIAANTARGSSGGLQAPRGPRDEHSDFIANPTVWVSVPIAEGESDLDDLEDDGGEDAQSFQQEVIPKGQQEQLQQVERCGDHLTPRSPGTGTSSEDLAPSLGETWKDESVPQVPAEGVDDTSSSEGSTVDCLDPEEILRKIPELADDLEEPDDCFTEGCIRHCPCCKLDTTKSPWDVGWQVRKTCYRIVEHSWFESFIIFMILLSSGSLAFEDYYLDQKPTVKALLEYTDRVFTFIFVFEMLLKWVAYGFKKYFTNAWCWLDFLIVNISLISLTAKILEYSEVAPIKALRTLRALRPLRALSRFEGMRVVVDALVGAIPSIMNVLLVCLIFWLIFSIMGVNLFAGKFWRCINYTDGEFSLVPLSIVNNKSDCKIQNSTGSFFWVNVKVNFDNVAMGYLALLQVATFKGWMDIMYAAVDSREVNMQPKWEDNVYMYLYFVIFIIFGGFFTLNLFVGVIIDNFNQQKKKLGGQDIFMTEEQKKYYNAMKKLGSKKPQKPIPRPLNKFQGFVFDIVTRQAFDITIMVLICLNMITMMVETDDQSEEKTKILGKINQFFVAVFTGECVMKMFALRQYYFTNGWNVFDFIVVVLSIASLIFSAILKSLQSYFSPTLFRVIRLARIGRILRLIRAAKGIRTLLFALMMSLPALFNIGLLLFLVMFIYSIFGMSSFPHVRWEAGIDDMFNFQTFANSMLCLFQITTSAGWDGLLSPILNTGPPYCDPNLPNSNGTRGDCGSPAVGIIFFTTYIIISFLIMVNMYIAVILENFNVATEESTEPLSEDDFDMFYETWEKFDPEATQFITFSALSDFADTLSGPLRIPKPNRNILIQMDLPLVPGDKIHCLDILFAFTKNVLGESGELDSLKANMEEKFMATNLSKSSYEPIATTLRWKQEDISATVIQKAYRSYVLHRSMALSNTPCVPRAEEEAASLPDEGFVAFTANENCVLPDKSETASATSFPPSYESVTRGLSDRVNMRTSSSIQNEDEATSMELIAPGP
- Sequence (Q9NY72 23-215 partner): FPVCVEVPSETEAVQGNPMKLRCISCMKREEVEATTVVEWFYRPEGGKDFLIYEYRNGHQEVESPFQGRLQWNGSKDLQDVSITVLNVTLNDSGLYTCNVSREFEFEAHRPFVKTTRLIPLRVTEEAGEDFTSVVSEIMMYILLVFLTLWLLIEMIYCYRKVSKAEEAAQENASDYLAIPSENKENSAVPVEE
- assay_details: Compound Profiling Human NaV1.8/β3 Cell Line—SyncroPatch384PE Assay (automated patch clamp, stably transfected CHO cells)
- Type: cell-based
- reported_conditions: P2 (IC50, inactivated state block), P2 measurement, inactivated state block; Nav1.8/b3 CHO cells, inactivation step −35 mV 10 sec; first set of compounds
pIC50: −log10 of the molar value.

Sample records with pIC50:
compound | metric_name | value_observed
C[S@@](=N)(=O)c1cccc(NC(=O)c2c(Oc3ccc(OC(F)(F)F)cc3)cc(C(F)(F)F)c(Cl)c2Oc2ccc(OC(F)(F)F)cc2)c1 [Example 46A] | pIC50 | 6.70 to 7.00
Cc1nc(F)ccc1Oc1cc(C2CC2)c(C(F)(F)F)cc1C(=O)Nc1ccc(F)c([S@](C)(=N)=O)c1 [Example 52A] | pIC50 | > 8.30
Cc1nc(F)ccc1Oc1ccc(C(F)(F)F)c(F)c1C(=O)Nc1cccc([S@](C)(=N)=O)c1 | pIC50 | > 8.30
Cc1nc(F)ccc1Oc1cc(C(F)(F)F)c(Cl)c(F)c1C(=O)Nc1ccc(C(N)=O)cc1 [Example 37A] | pIC50 | > 8.30
Cc1nc(F)ccc1Oc1cc(C(F)(F)F)c(Cl)cc1C(=O)Nc1cccc([S@](C)(=N)=O)c1 | pIC50 | > 8.30

Form field: reported pIC50 of Cc1nc(F)ccc1Oc1cc(C(F)(F)F)cc(F)c1C(=O)Nc1ccnc([S@@](C)(=N)=O)c1 [Example 33A]
7.30 to 8.30

* * *

- target_of_assay: human Nav1.8/b3 (Homo sapiens)
- Construct: expressed in transfected cells; host or cells: CHO
- assay_details: Compound Profiling Human NaV1.8/β3 Cell Line—SyncroPatch384PE Assay (automated patch clamp, stably transfected CHO cells)
- Type: cell-based
- reported_conditions: P2 (IC50, inactivated state block), P2 measurement, inactivated state block; Nav1.8/b3 CHO cells, inactivation step −35 mV 10 sec; second set of compounds
pIC50: −log10 of the molar value.
metric_name: pIC50

compound | pIC50
Cc1nc(F)ccc1Oc1cc(C(F)(F)F)ccc1C(=O)Nc1cccc([S@@](C)(=O)=NC(=O)[C@H](C)O)c1 [Example 12B] | 7.30 to 8.30

Form field: reported pIC50 of Cc1nc(F)ccc1Oc1cc(C(F)(F)F)c(Cl)cc1C(=O)Nc1cccc([S@@](C)(=O)=NC(=O)C2(N)CCC2)c1 [Example 6B]
> 8.30

Form field: reported pIC50 of Cc1nc(F)ccc1Oc1ccc(C(F)(F)F)c(C)c1C(=O)Nc1cccc([S@@](C)(=O)=NC(=O)[C@@H](C)O)c1 [Example 28B]
> 8.30

Form field: reported pIC50 of Cc1nc(F)ccc1Oc1cc(C(F)(F)F)c(Cl)cc1C(=O)Nc1cccc([S@@](C)(=O)=NC(=O)CN)c1 [Example 4B]
> 8.30

Form field: reported pIC50 of Cc1nc(F)ccc1Oc1cc(C(F)(F)F)c(Cl)cc1C(=O)Nc1cccc([S@@](C)(=O)=NC(=O)[C@@H](C)N)c1 [Example 5B]
> 8.30

Form field: reported pIC50 of CNCC(=O)N=[S@](C)(=O)c1cccc(NC(=O)c2c(Oc3ccc(F)nc3C)ccc(C(F)(F)F)c2C)c1 [Example 25B]
> 8.30

* * *

- target_of_assay: human Nav1.8/β1 (Homo sapiens)
- Construct: host or cells: HEK293
- Sequence (Q9Y5Y9 whole entry): as the sequence (Q9Y5Y9 whole entry) above
- Sequence (Q07699 19-218 partner): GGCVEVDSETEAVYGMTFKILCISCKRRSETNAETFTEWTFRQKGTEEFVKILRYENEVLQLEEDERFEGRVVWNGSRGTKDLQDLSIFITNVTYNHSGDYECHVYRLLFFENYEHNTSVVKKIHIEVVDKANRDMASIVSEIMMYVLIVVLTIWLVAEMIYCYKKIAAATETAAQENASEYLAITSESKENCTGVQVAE
- assay_details: Compound Profiling Human NaV1.8/β1 Cell Line—Sophion QPatch II Assay (automated patch clamp, stably transfected HEK293 cells)
- Assay type: cell-based
metric_name: IC50

compound | value_observed
Cc1c(C(F)(F)F)cnc(Oc2ccc(F)nc2CO)c1C(=O)Nc1cccc([S@@](C)(=N)=O)c1 [Example 83C] | > 200 nM
CCC(N)(CC)CCS(=N)(=O)c1cccc(NC(=O)c2c(Oc3ccc(F)nc3C)ncc(C(F)(F)F)c2C)c1 (stereo not shown) [Example 41C] | 5 to 50 nM
CC[S@@](=N)(=O)c1cccc(NC(=O)c2c(Oc3ccc(F)nc3C)ncc(C(F)(F)F)c2C)c1 [Example 82C] | 50 to 100 nM
Cc1cc(F)ccc1Oc1ncc(C(F)(F)F)c(C)c1C(=O)Nc1cccc(S(=N)(=O)CCCO)c1 (stereo not shown) [Example 54C] | 50 to 100 nM
CNCC[S@](=N)(=O)c1cccc(NC(=O)c2c(Oc3ccc(F)nc3C)ncc(C(F)(F)F)c2C)c1 [Example 65C] | 5 to 50 nM

Form field: reported IC50 of COc1cc(C#N)ccc1Oc1ncc(C(F)(F)F)c(C)c1C(=O)Nc1cccc([S@](=N)(=O)CCCO)c1 [Example 57C]
5 to 50 nM

Form field: reported IC50 of COc1cc(C#N)ccc1Oc1cc(C(F)(F)F)c(Cl)cc1C(=O)Nc1cccc([S@@](C)(=N)=O)c1 [Example 25A]
> 200 nM

* * *

- target_of_assay: human Nav1.8/b3 (Homo sapiens)
- Construct: expressed in transfected cells; host or cells: CHO
- assay_details: Compound Profiling Human NaV1.8/β3 Cell Line—SyncroPatch384PE Assay (automated patch clamp, stably transfected CHO cells)
- Assay type: cell-based
- reported_conditions: P1 (IC50, resting state block), P1 measurement, resting state block; Nav1.8/b3 CHO cells, holding potential −120 mV; second set of compounds
metric_name: IC50

Sample records with IC50:
compound | value_observed
Cc1nc(F)ccc1Oc1ccc(C(F)(F)F)c(C)c1C(=O)Nc1cccc([S@@](C)(=O)=NC(=O)CO)c1 [Example 27B] | < 5 nM
Cc1nc(F)ccc1Oc1cc(C(F)(F)F)c(Cl)cc1C(=O)Nc1cccc([S@@](C)(=O)=NC(=O)CO)c1 | < 5 nM

Pending compound:
Form field: reported IC50 of CNCC(=O)N=[S@](C)(=O)c1cccc(NC(=O)c2c(Oc3ccc(F)nc3C)ccc(C(F)(F)F)c2C)c1 [Example 25B]
< 5 nM
